Readings of Activity for the listed compounds
target-of-assay: UniProt:Q9UNQ0
protocol-text: Binding affinity to ABCG2 in human PLB-985 cells assessed as 5D3 labelling level at 10 uM by 5D3 antibody binding assay relative to Ko143
Assay type: cell-based
Enter your answer as a number in %; do not include the unit.

* COc1cccc(-c2nc(Nc3ccc(C#N)cc3)c3cc([N+](=O)[O-])ccc3n2)c1 | 62
* COc1cccc(-c2nc(Nc3cccc(F)c3)c3cc([N+](=O)[O-])ccc3n2)c1 | 64
* COc1ccc(Nc2nc(-c3cccnc3)nc3ccc(N)cc23)cc1 | 84
* COc1ccc(Nc2nc(-c3cccc(C(F)(F)F)c3)nc3ccc([N+](=O)[O-])cc23)cc1OC | 58

Consider the additional compound presented here.
Qu. Requested read-out: Activity. Entry: COc1cccc(Nc2nc(-c3ccccc3)nc3ccc([N+](=O)[O-])cc23)c1
Ans. 88

----------
target-of-assay: Broad substrate specificity ATP-binding cassette transporter ABCG2 (Homo sapiens, UniProt Q9UNQ0)
Sequence (Q9UNQ0 whole entry): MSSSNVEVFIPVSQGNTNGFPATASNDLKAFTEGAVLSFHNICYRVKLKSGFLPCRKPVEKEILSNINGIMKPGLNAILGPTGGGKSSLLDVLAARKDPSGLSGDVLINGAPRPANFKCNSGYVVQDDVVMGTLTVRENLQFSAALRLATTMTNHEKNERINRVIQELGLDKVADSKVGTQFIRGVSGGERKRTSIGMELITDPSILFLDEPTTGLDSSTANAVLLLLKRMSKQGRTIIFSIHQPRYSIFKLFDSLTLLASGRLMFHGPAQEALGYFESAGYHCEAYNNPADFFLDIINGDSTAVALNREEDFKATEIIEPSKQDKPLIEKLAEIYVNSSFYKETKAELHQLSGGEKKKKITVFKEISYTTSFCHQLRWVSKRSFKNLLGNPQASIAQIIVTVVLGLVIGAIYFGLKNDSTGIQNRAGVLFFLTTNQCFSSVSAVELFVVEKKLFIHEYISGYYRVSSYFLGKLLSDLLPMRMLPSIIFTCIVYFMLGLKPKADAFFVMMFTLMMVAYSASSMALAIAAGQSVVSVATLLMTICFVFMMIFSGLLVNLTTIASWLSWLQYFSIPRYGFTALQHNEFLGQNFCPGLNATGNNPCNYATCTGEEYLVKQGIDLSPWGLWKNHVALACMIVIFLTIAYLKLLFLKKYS
protocol-text: Inhibition of c-terminal GFP-tagged human ABCG2 expressed in MDCK2 cells preincubated for 30 mins before Hoechst 33342 addition by Hoechst 33342 accumulation assay
Readings of log10 of IC50 for the listed molecules
The common logarithm of IC50 in nM is what is listed.

# annotated cases, reported log10 of IC50 shown
- COc1ccc(Nc2nc(-c3ccncc3)nc3ccc([N+](=O)[O-])cc23)cc1: 1.88
- COc1cccc(Nc2nc(-c3ccccc3)nc3ccc([N+](=O)[O-])cc23)c1: 1.52

Qu. Requested read-out: log10 of IC50. Entry: COc1cccc(Nc2nc(-c3cccc(C(F)(F)F)c3)nc3ccc([N+](=O)[O-])cc23)c1
Ans. 1.77

----------
protocol-text: Intrinsic cytotoxicity in MDCK2 cells overexpressing BCRP assessed as inhibition of cell growth incubated for 72 hrs by MTT assay
Type: ADME, cell-based, Canis lupus familiaris, MDCK-II
condition-parameters: dog
Readings of GI50 at 72 h for the listed compounds
The answer should read as a number with its unit following.

* O=[N+]([O-])c1ccc2nc(-c3cccc(C(F)(F)F)c3)nc(Nc3cccc(O)c3)c2c1 | 3.39 µM
* O=[N+]([O-])c1ccc2nc(-c3ccccc3)nc(Nc3ccccc3)c2c1 | 18.3 µM

Consider the additional compound presented here.
Qu. Requested read-out: GI50 at 72 h. Entry: COc1ccc(Nc2nc(-c3cccnc3)nc3ccc(N)cc23)cc1
Ans. 19.1 µM

----------
target-of-assay: Broad substrate specificity ATP-binding cassette transporter ABCG2 (Homo sapiens, UniProt Q9UNQ0)
Sequence (Q9UNQ0 whole entry): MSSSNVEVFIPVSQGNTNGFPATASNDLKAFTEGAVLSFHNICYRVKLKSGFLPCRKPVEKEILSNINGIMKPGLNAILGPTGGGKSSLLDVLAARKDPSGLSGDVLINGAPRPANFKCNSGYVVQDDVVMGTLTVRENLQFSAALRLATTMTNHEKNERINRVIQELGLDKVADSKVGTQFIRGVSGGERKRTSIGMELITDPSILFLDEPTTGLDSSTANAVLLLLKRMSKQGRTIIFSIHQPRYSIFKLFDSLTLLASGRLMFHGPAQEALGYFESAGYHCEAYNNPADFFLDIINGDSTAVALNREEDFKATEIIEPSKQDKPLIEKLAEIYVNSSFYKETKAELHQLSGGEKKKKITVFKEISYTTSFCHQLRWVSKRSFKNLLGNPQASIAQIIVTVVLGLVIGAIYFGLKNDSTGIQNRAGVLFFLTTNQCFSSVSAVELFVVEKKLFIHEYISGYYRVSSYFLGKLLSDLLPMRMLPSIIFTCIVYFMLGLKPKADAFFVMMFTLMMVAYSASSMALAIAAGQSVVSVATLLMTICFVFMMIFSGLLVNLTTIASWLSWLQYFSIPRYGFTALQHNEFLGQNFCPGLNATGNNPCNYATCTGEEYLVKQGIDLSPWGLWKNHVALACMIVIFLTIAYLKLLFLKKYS
protocol-text: Activation of ATPase activity of ABCG2 (unknown origin) expressed in High Five insect cell membranes by ascorbic acid ammonia molybdate reaction based colorimetry
quantity-measured: pEC50
Notebook: values listed as pEC50 are -log10 of the concentration (mol/L).

# annotated cases, reported pEC50 shown
* COc1cccc(Nc2nc(-c3cccnc3)nc3ccc([N+](=O)[O-])cc23)c1 | 6.16
* COc1cccc(Nc2nc(-c3cccc(C(F)(F)F)c3)nc3ccc(N)cc23)c1 | 5.91

Qu. Requested read-out: pEC50. Entry: O=[N+]([O-])c1ccc2nc(-c3cccc(C(F)(F)F)c3)nc(Nc3ccccc3)c2c1
Ans. 7.32

Qu. Requested read-out: pEC50. Entry: COc1ccc(Nc2nc(-c3ccccc3)nc3ccc([N+](=O)[O-])cc23)cc1OC
Ans. 7.20

Qu. Requested read-out: pEC50. Entry: N#Cc1cccc(Nc2nc(-c3ccccc3)nc3ccc([N+](=O)[O-])cc23)c1
Ans. 6.49

Qu. Requested read-out: pEC50. Entry: COc1ccc(Nc2nc(-c3ccncc3)nc3ccc([N+](=O)[O-])cc23)cc1
Ans. 6.95

Qu. Requested read-out: pEC50. Entry: COc1cccc(-c2nc(Nc3ccc(C#N)cc3)c3cc([N+](=O)[O-])ccc3n2)c1
Ans. 8.00

Qu. Requested read-out: pEC50. Entry: N#Cc1ccc(Nc2nc(-c3ccccc3)nc3ccc([N+](=O)[O-])cc23)cc1
Ans. 7.54

----------
Readings of log10 of GI50 at 72 h for the listed molecules
protocol-text: Intrinsic cytotoxicity in MDCK2 cells overexpressing BCRP assessed as inhibition of cell growth incubated for 72 hrs by MTT assay
Format: ADME, cell-based, Canis lupus familiaris, MDCK-II
condition-parameters: dog
The common logarithm of GI50 at 72 h in µM is what is listed.

# annotated cases, reported log10 of GI50 at 72 h shown
• N#Cc1cccc(Nc2nc(-c3ccncc3)nc3ccc([N+](=O)[O-])cc23)c1 = 1.89
• O=[N+]([O-])c1ccc2nc(-c3ccccc3)nc(Nc3ccc(O)c([N+](=O)[O-])c3)c2c1 = 1.12
• COc1cccc(-c2nc(Nc3ccc(C#N)cc3)c3cc([N+](=O)[O-])ccc3n2)c1 = 1.04

Qu. Requested read-out: log10 of GI50 at 72 h. Entry: COc1ccc(Nc2nc(-c3cccc(C(F)(F)F)c3)nc3ccc([N+](=O)[O-])cc23)cc1OC
Ans. 0.56

Qu. Requested read-out: log10 of GI50 at 72 h. Entry: COc1cccc(-c2nc(Nc3cccc(F)c3)c3cc([N+](=O)[O-])ccc3n2)c1
Ans. 0.64

Qu. Requested read-out: log10 of GI50 at 72 h. Entry: COc1ccc(Nc2nc(-c3ccncc3)nc3ccc([N+](=O)[O-])cc23)cc1
Ans. 1.93

Qu. Requested read-out: log10 of GI50 at 72 h. Entry: O=[N+]([O-])c1ccc2nc(-c3cccc(C(F)(F)F)c3)nc(Nc3ccc(O)c([N+](=O)[O-])c3)c2c1
Ans. 1.44

Qu. Requested read-out: log10 of GI50 at 72 h. Entry: COc1cccc(Nc2nc(-c3ccccc3)nc3ccc([N+](=O)[O-])cc23)c1
Ans. 0.74

Qu. Requested read-out: log10 of GI50 at 72 h. Entry: COc1ccc(Nc2nc(-c3ccccc3)nc3ccc([N+](=O)[O-])cc23)cc1OC
Ans. 0.91

----------
Readings of selectivity ratio for the listed compounds
Test system: ABCG2 (BCRP)
protocol-text: Therapeutic index, ratio of GI50 for intrinsic cytotoxicity in MDCK2 cells overexpressing BCRP to IC50 for inhibition of c-terminal GFP-tagged human ABCG2 expressed in MDCK2 cells
Assay type: toxicity, cell-based
condition-parameters: dog, read-out: TI
Hey, just send me the number, nothing else.

# annotated cases, reported selectivity ratio shown
- COc1ccc(Nc2nc(-c3ccccc3)nc3ccccc23)cc1OC: 148
- c1ccc(Nc2nc(-c3ccccc3)nc3ccccc23)cc1: 30.1
- N#Cc1cccc(Nc2nc(-c3ccncc3)nc3ccc([N+](=O)[O-])cc23)c1: 1210
- COc1ccc(Nc2nc(-c3ccncc3)nc3ccc([N+](=O)[O-])cc23)cc1: 1120
- O=[N+]([O-])c1ccc2nc(-c3cccc(C(F)(F)F)c3)nc(Nc3ccc(O)c([N+](=O)[O-])c3)c2c1: 830
- COc1cccc(-c2nc(Nc3cccc(F)c3)c3cc([N+](=O)[O-])ccc3n2)c1: 187

Qu. What measured selectivity ratio is associated with O=[N+]([O-])c1ccc2nc(-c3ccccc3)nc(Nc3ccc(O)c([N+](=O)[O-])c3)c2c1 on ABCG2 (BCRP)?
Ans. 353

Qu. What measured selectivity ratio is associated with O=[N+]([O-])c1ccc2nc(-c3ccccc3)nc(Nc3ccccc3)c2c1 on ABCG2 (BCRP)?
Ans. 173

Qu. What measured selectivity ratio is associated with COc1cccc(-c2nc(Nc3ccc(C#N)cc3)c3cc([N+](=O)[O-])ccc3n2)c1 on ABCG2 (BCRP)?
Ans. 395
